As shown below, each of these compounds has a reported TP value.
# Species on record: Rattus norvegicus
# Experiment Description: Open TG-GATES - Regimen: Single
# Assay type: toxicity, organism-based, Sprague-Dawley
# Set-up: regimen Single, gender Male, age 6 weeks
# Measurement Parameters: in vivo, po, 1000 mg/kg, 24 h, tissue Plasma, route gavage, dose level High
Parameter Measured: TP (g/dL)

compound=NC(N)=Nc1nc(CSCCC(N)=NS(N)(=O)=O)cs1 parameter_measured=TP obs_value=5.5
compound="CC(C)OC(=O)C(C)(C)Oc1ccc(C(=O)c2ccc(Cl)cc2)cc1 [FENOFIBRATE]" parameter_measured=TP obs_value=5.3
compound="CCOC(=O)CCC(=O)O[C@H]1[C@H](O[C@@H]2[C@@H](C)[C@H](O[C@H]3C[C@@](C)(OC)[C@@H](O)[C@H](C)O3)[C@@H](C)C(=O)O[C@H](CC)[C@@](C)(O)[C@H](O)[C@@H](C)C(=O)[C@H](C)C[C@@]2(C)O)O[C@H](C)C[C@@H]1N(C)C [ERYTHROMYCIN ETHYLSUCCINATE]" parameter_measured=TP obs_value=5.6
compound=COC1=CC(=O)C[C@@H](C)[C@]12Oc1c(Cl)c(OC)cc(OC)c1C2=O parameter_measured=TP obs_value=5.4
compound="COc1ccc2[nH]c([S+]([O-])Cc3ncc(C)c(OC)c3C)nc2c1 (stereo not given)" parameter_measured=TP obs_value=5.4

###

# Species on record: Rattus norvegicus
# Experiment Description: Open TG-GATES - Regimen: Daily Repeat
# Format: toxicity, organism-based, Sprague-Dawley
# Parameters: regimen Daily Repeat, gender Male, age 6 weeks
# Measurement Parameters: in vivo, po, 300 mg/kg, […], tissue Blood, route gavage, dose level Middle, time 14 day
Catalogue of Ht values
Parameter Measured: Ht (%)

molecule="CCOC(=O)CCC(=O)O[C@H]1[C@H](O[C@@H]2[C@@H](C)[C@H](O[C@H]3C[C@@](C)(OC)[C@@H](O)[C@H](C)O3)[C@@H](C)C(=O)O[C@H](CC)[C@@](C)(O)[C@H](O)[C@@H](C)C(=O)[C@H](C)C[C@@]2(C)O)O[C@H](C)C[C@@H]1N(C)C [ERYTHROMYCIN ETHYLSUCCINATE]" parameter_measured=Ht obs_value=40.7
molecule=NC(N)=Nc1nc(CSCCC(N)=NS(N)(=O)=O)cs1 parameter_measured=Ht obs_value=42
molecule="CCOc1ccc(NC(=O)CC(C)O)cc1 (stereo not given)" parameter_measured=Ht obs_value=42.4
molecule="COc1ccc2[nH]c([S+]([O-])Cc3ncc(C)c(OC)c3C)nc2c1 (stereo not given)" parameter_measured=Ht obs_value=39.2
molecule=COC1=CC(=O)C[C@@H](C)[C@]12Oc1c(Cl)c(OC)cc(OC)c1C2=O parameter_measured=Ht obs_value=42.2

###

The following compounds are shown together with reported K values.
# Species: Rattus norvegicus
# Experiment Description: Open TG-GATES - Regimen: Daily Repeat
# Format: toxicity, organism-based, Sprague-Dawley
# Set-up: regimen Daily Repeat, gender Male, age 6 weeks
# Measurement Parameters: in vivo, po, 300 mg/kg, […], tissue Plasma, route gavage, dose level Middle, time 28 day
Parameter Measured: K (meq/L)

compound="CCOC(=O)CCC(=O)O[C@H]1[C@H](O[C@@H]2[C@@H](C)[C@H](O[C@H]3C[C@@](C)(OC)[C@@H](O)[C@H](C)O3)[C@@H](C)C(=O)O[C@H](CC)[C@@](C)(O)[C@H](O)[C@@H](C)C(=O)[C@H](C)C[C@@]2(C)O)O[C@H](C)C[C@@H]1N(C)C [ERYTHROMYCIN ETHYLSUCCINATE]" parameter_measured=K obs_value=4
compound="CCOc1ccc(NC(=O)CC(C)O)cc1 (centres undefined) [BUCETIN]" parameter_measured=K obs_value=3.8
compound="COc1ccc2[nH]c([S+]([O-])Cc3ncc(C)c(OC)c3C)nc2c1 (centres undefined) [OMEPRAZOLE]" parameter_measured=K obs_value=3.7
compound="COC1=CC(=O)C[C@@H](C)[C@]12Oc1c(Cl)c(OC)cc(OC)c1C2=O [GRISEOFULVIN]" parameter_measured=K obs_value=3.7

###

# Organism: Rattus norvegicus
# Experiment Description: Open TG-GATES - Regimen: Single
# Assay type: toxicity, organism-based, Sprague-Dawley
# Parameters: regimen Single, gender Male, age 6 weeks
# Measurement Parameters: in vivo, po, 100 mg/kg, 9 h, tissue Blood, route gavage, dose level High
Parameter Measured: Plat

mol=CN(C)CCCN1c2ccccc2CCc2ccc(Cl)cc21 obs_value="144.8 x10_4/uL"
mol=CN(C)CCCN1c2ccccc2CCc2ccccc21 obs_value="111.5 x10_4/uL"
mol=CN(C)CCN(Cc1cccs1)c1ccccn1 obs_value="122.3 x10_4/uL"
mol=CC1=C(/C=C/C(C)=C/C=C/C(C)=C/CO)C(C)(C)CCC1 obs_value="124.3 x10_4/uL"

###

Entries and their measured APTT follow.
# Species on record: Rattus norvegicus
# Experiment Description: Open TG-GATES - Regimen: Daily Repeat
# Type: toxicity, organism-based, Sprague-Dawley
# Set-up: regimen Daily Repeat, gender Male, age 6 weeks
# Measurement Parameters: in vivo, po, 0 mg/kg, […], tissue Blood, route gavage, dose level Control, time 7 day
Parameter Measured: APTT (s)

compound=CC1=C(/C=C/C(C)=C/C=C/C(C)=C/CO)C(C)(C)CCC1 parameter_measured=APTT output_unit=s obs_value=20.5
compound="CCOC(=O)CCC(=O)O[C@H]1[C@H](O[C@@H]2[C@@H](C)[C@H](O[C@H]3C[C@@](C)(OC)[C@@H](O)[C@H](C)O3)[C@@H](C)C(=O)O[C@H](CC)[C@@](C)(O)[C@H](O)[C@@H](C)C(=O)[C@H](C)C[C@@]2(C)O)O[C@H](C)C[C@@H]1N(C)C [ERYTHROMYCIN ETHYLSUCCINATE]" parameter_measured=APTT output_unit=s obs_value=20.5
compound=O=C(CCCN1CCC(O)(c2ccc(Cl)cc2)CC1)c1ccc(F)cc1 parameter_measured=APTT output_unit=s obs_value=16.9
compound=NC(N)=Nc1nc(CSCCC(N)=NS(N)(=O)=O)cs1 parameter_measured=APTT output_unit=s obs_value=20.1
compound=NNC(=O)c1ccncc1 parameter_measured=APTT output_unit=s obs_value=14.6
compound="CCCNC(=O)NS(=O)(=O)c1ccc(Cl)cc1 [CHLORPROPAMIDE]" parameter_measured=APTT output_unit=s obs_value=17.6
compound=COC1=CC(=O)C[C@@H](C)[C@]12Oc1c(Cl)c(OC)cc(OC)c1C2=O parameter_measured=APTT output_unit=s obs_value=18.8
compound="CCOc1ccc(NC(=O)CC(C)O)cc1 (stereo not drawn)" parameter_measured=APTT output_unit=s obs_value=16.5

###

# Species: Rattus norvegicus
# Experiment Description: Open TG-GATES - Regimen: Single
# Format: toxicity, organism-based, Sprague-Dawley
# Design: regimen Single, gender Male, age 6 weeks
# Measurement Parameters: in vivo, po, 1000 mg/kg, 24 h, tissue Blood, route gavage, dose level High
Rule: Fbg below 300 mg/dL gives y. Equal to or above 300 mg/dL gives n.

compound="CCOC(=O)CCC(=O)O[C@H]1[C@H](O[C@@H]2[C@@H](C)[C@H](O[C@H]3C[C@@](C)(OC)[C@@H](O)[C@H](C)O3)[C@@H](C)C(=O)O[C@H](CC)[C@@](C)(O)[C@H](O)[C@@H](C)C(=O)[C@H](C)C[C@@]2(C)O)O[C@H](C)C[C@@H]1N(C)C [ERYTHROMYCIN ETHYLSUCCINATE]" label_class=n
compound="COc1ccc2[nH]c([S+]([O-])Cc3ncc(C)c(OC)c3C)nc2c1 (stereo not given) [OMEPRAZOLE]" label_class=y
compound="COC1=CC(=O)C[C@@H](C)[C@]12Oc1c(Cl)c(OC)cc(OC)c1C2=O [GRISEOFULVIN]" label_class=y
compound="CC(C)OC(=O)C(C)(C)Oc1ccc(C(=O)c2ccc(Cl)cc2)cc1 [FENOFIBRATE]" label_class=y
compound="NC(N)=Nc1nc(CSCCC(N)=NS(N)(=O)=O)cs1 [FAMOTIDINE]" label_class=y

###

# maps each entry to its GLC
# Species on record: Rattus norvegicus
# Experiment Description: Open TG-GATES - Regimen: Single
# Format: toxicity, organism-based, Sprague-Dawley
# Parameters: regimen Single, gender Male, age 6 weeks
# Measurement Parameters: in vivo, po, 100 mg/kg, 24 h, tissue Plasma, route gavage, dose level Low
Parameter Measured: GLC (mg/dL)

compound="COc1ccc2[nH]c([S+]([O-])Cc3ncc(C)c(OC)c3C)nc2c1 (centres undefined)" output_unit=mg/dL obs_value=209.4
compound=COC1=CC(=O)C[C@@H](C)[C@]12Oc1c(Cl)c(OC)cc(OC)c1C2=O output_unit=mg/dL obs_value=215.8
compound=NC(N)=Nc1nc(CSCCC(N)=NS(N)(=O)=O)cs1 output_unit=mg/dL obs_value=199.4
compound="CCOC(=O)CCC(=O)O[C@H]1[C@H](O[C@@H]2[C@@H](C)[C@H](O[C@H]3C[C@@](C)(OC)[C@@H](O)[C@H](C)O3)[C@@H](C)C(=O)O[C@H](CC)[C@@](C)(O)[C@H](O)[C@@H](C)C(=O)[C@H](C)C[C@@]2(C)O)O[C@H](C)C[C@@H]1N(C)C [ERYTHROMYCIN ETHYLSUCCINATE]" output_unit=mg/dL obs_value=200.6
